protocol_summary: Bi-directional Caco-2 permeability
Type: in vitro ADME
test_settings: human, Caco-2; apical to basolateral, 37° C., up to 90 minutes; read-out: AB Papp (cm/sec × 10^6)
Procedure: Bi-directional Caco-2 permeability was assayed. Caco-2 cells were seeded onto permeable polycarbonate supports and allowed to differentiate for about 3 weeks prior to being used in the assays. The cells were then exposed to the compounds from either the apical or basolateral sides and incubated at 37° C. for up to 90 minutes under light agitation. Compound transport was then measured using LC/MS/MS analysis at 30, 60, and 90 minutes.

- molecule: "CC(C)NC(=O)OC1CCC(c2ncc(-c3ccc(NC(=O)NCc4ccccc4)cc3S(=O)(=O)NC(C)(C)C)s2)CC1 (stereo not shown) [Ex. 21]"
  unit_symbol: "×10⁻⁶ cm/s"
  Papp A→B at 90 min: 3.6
- molecule: "CC(C)OC(=O)Nc1ccc(-c2cnc(C3CC[C@@H](NC(=O)OC(C)C)CO3)s2)c(S(=O)(=O)NC(C)(C)C)c1 (mixture of isomers) [Ex. 60]"
  unit_symbol: "×10⁻⁶ cm/s"
  Papp A→B at 90 min: 15.6
- molecule: "CC(C)OC(=O)N[C@@H]1CCC(c2ncc(-c3ccc(NC(=O)NCc4ccccc4)cc3S(=O)(=O)NC(C)(C)C)s2)OC1 (mixture of isomers) [Ex. 59]"
  unit_symbol: "×10⁻⁶ cm/s"
  Papp A→B at 90 min: 3.1
- molecule: "CC(C)OC(=O)NC1CCC(c2ncc(-c3ccc(NC(=O)NCc4ncccc4F)cc3S(=O)(=O)NC(C)(C)C)s2)CC1 (stereo not shown) [Ex. 31]"
  unit_symbol: "×10⁻⁶ cm/s"
  Papp A→B at 90 min: 12.8

###

Quick list: F (%) @ 5 mg/kg per entry.
protocol_summary: Pharmacokinetic (PK) study, plasma by LC-MS
Assay type: in vivo, rat
test_settings: Rat Male, po @ 80 mg/kg

- molecule: "CC(C)OC(=O)NC1CCC(c2ncc(-c3ccc(NC(=O)NCc4ccccn4)cc3S(=O)(=O)NC(C)(C)C)s2)CC1 (stereo not shown)"
  unit_symbol: "%"
  F (%) @ 5 mg/kg: 3.69
- molecule: "CC(C)OC(=O)Nc1ccc(-c2cnc([C@H]3CC[C@H](NC(=O)OC(C)C)CC3)s2)c(S(=O)(=O)NC(C)(C)C)c1 [Ex. 67A]"
  unit_symbol: "%"
  F (%) @ 5 mg/kg: 46.9
- molecule: "CC(C)OC(=O)NC1CCC(c2ncc(-c3ccc(NC(=O)NCc4ncccc4F)cc3S(=O)(=O)NC(C)(C)C)s2)CC1 (stereo not shown)"
  unit_symbol: "%"
  F (%) @ 5 mg/kg: 1.49
- molecule: "CC(C)OC(=O)N[C@H]1CC[C@H](c2ncc(-c3ccc(NC(=O)NCc4ccccc4)cc3S(=O)(=O)NC(C)(C)C)s2)CC1 [Ex. 66A]"
  unit_symbol: "%"
  F (%) @ 5 mg/kg: 2.55

###

Tested on: ARPE19/HPV16 (HPV Immortalized RPE)
protocol_summary: Cell line screen, potency assay
Format: cell-based
test_settings: ARPE-19, AICDA expression Negative

- compound: "CC(C)OC(=O)Nc1ccc(-c2cnc([C@H]3CC[C@H](NC(=O)OC(C)C)CC3)s2)c(S(=O)(=O)NC(C)(C)C)c1 [Ex. 67A]"
  EC50: "> 10 µM"

###

protocol_summary: Bi-directional Caco-2 permeability
Format: in vitro ADME
test_settings: human; Caco-2 efflux ratio; read-out: BA/AB Ratio
measurement_label: efflux ratio at 90 min

- molecule: "CC(C)OC(=O)N[C@H]1CC[C@H](c2ncc(-c3ccc(NC(=O)NCc4ccncc4)cc3S(=O)(=O)NC(C)(C)C)s2)CC1 [Ex. 22]"
  assay_value: 18.7
- molecule: "CC(C)OC(=O)NC1CCC(c2ncc(-c3ccc(NC(=O)NCc4ncccc4F)cc3S(=O)(=O)NC(C)(C)C)s2)CC1 (stereo not drawn) [Ex. 31]"
  assay_value: 1.1
- molecule: "CC(C)OC(=O)N[C@@H]1CCC(c2ncc(-c3ccc(NC(=O)NCc4ccccc4)cc3S(=O)(=O)NC(C)(C)C)s2)NC1 (stereo partly drawn) [Ex. 64]"
  assay_value: 12.5
- molecule: "CC(C)NC(=O)OC1CCC(c2ncc(-c3ccc(NC(=O)NCc4ccccc4)cc3S(=O)(=O)NC(C)(C)C)s2)CC1 (stereo not drawn) [Ex. 21]"
  assay_value: 3
- molecule: "CC(C)OC(=O)NC1CCC(c2ncc(-c3ccc(NC(=O)OC[C@@H]4CCCN4C)cc3S(=O)(=O)NC(C)(C)C)s2)CC1 (stereo partly drawn) [Ex. 35]"
  assay_value: 99.1
- molecule: "CC(C)OC(=O)Nc1ccc(-c2cnc(C3CC[C@@H](NC(=O)OC(C)C)CO3)s2)c(S(=O)(=O)NC(C)(C)C)c1 (mixture of isomers) [Ex. 60]"
  assay_value: 0.9
- molecule: "CC(C)OC(=O)NC1CCC(c2ncc(-c3ccc(NC(=O)NCc4ccccc4F)cc3S(=O)(=O)NC(C)(C)C)s2)CC1 (stereo not drawn) [Ex. 28]"
  assay_value: 1.7
- molecule: "CC(C)OC(=O)NC1CCC(c2ncc(-c3ccc(NC(=O)NCc4ccccn4)cc3S(=O)(=O)NC(C)(C)C)s2)CC1 (stereo not drawn) [Ex. 29]"
  assay_value: 2.2
- molecule: "CC(C)OC(=O)NC1CCC(c2ncc(-c3ccc(NC(=O)N[C@H](C)c4ccccn4)cc3S(=O)(=O)NC(C)(C)C)s2)CC1 (stereo partly drawn) [Ex. 30]"
  assay_value: 1.4
- molecule: "CC(C)OC(=O)NC1CCC(c2ncc(-c3ccc(NC(=O)NCc4cccc(F)c4)cc3S(=O)(=O)NC(C)(C)C)s2)CC1 (stereo not drawn) [Ex. 27]"
  assay_value: 0.7
- molecule: "CC(C)OC(=O)N[C@@H]1CCC(c2ncc(-c3ccc(NC(=O)NCc4ccccc4)cc3S(=O)(=O)NC(C)(C)C)s2)OC1 (mixture of isomers) [Ex. 59]"
  assay_value: 4.8
- molecule: "CC(C)OC(=O)NC1CCC(c2ncc(-c3ccc(NC(=O)OC[C@H]4CCCN4C)cc3S(=O)(=O)NC(C)(C)C)s2)CC1 (stereo partly drawn) [Ex. 34]"
  assay_value: 104

###

protocol_summary: Bi-directional Caco-2 permeability
Type: in vitro ADME
test_settings: human, Caco-2; apical to basolateral, 37° C., up to 90 minutes; read-out: AB Papp (cm/sec × 10^6)

- compound: "CC(C)OC(=O)NC1CCC(c2ncc(-c3ccc(NC(=O)NCc4ccccc4F)cc3S(=O)(=O)NC(C)(C)C)s2)CC1 (stereo not shown)"
  Papp A→B at 90 min, ×10⁻⁶ cm/s: 1.9
- compound: "CC(C)OC(=O)N[C@@H]1CCC(c2ncc(-c3ccc(NC(=O)NCc4ccccc4)cc3S(=O)(=O)NC(C)(C)C)s2)NC1 (stereo partly shown)"
  Papp A→B at 90 min, ×10⁻⁶ cm/s: 2.2
- compound: "CC(C)OC(=O)NC1CCC(c2ncc(-c3ccc(NC(=O)OC[C@H]4CCCN4C)cc3S(=O)(=O)NC(C)(C)C)s2)CC1 (stereo partly shown)"
  Papp A→B at 90 min, ×10⁻⁶ cm/s: 0.4
- compound: "CC(C)OC(=O)N[C@H]1CC[C@H](c2ncc(-c3ccc(NC(=O)NCc4ccncc4)cc3S(=O)(=O)NC(C)(C)C)s2)CC1"
  Papp A→B at 90 min, ×10⁻⁶ cm/s: 1.1
